Overview of reported GI50 across a group of compounds:
Test system: RPMI-8226
measurement.protocol: NCI tumour cell line growth inhibition, 48 h
Activity calls are given as the source filed them. Rule as the data show it: active = GI50 up to about 1.1 µM and inactive = higher.

- compound: "N#CC(C#N)=C1/C(=C/C=C/C=C/C=C/c2ccc(N3CCCCC3)s2)S(=O)(=O)c2ccccc21"
  GI50: "36.4 µM (inactive)"
- compound: "CC(=O)c1ccc2c3c1[C@H]1O[C@H]1c1cccc(c1-3)[C@@H]1O[C@H]21"
  GI50: "2.09 µM (inactive)"
- compound: "CCOC(=O)C1CCCCN1CCc1c[nH]c2ccccc12 (stereo not given)"
  GI50: "84.7 µM (inactive)"
- compound: "COc1ccc(/C=N/n2c(Cc3ccc(Cl)cc3)n[nH]c2=O)c(OC)c1"
  GI50: "> 100 µM (inactive)"
- compound: "OC1(c2ccc(Cl)cc2)c2c(c3ccccc3c3ccccc23)C2=NCCN21 (stereo not given)"
  GI50: "34.4 µM (inactive)"
- compound: "CN(C)NC(=O)NC12CC3CC(CC(C3)C1)C2"
  GI50: "> 100 µM (inactive)"
- compound: "COc1cccc(/C=N/[N-]C(=S)Nc2ccccc2)c1[O-].O.[Zn+2]"
  GI50: "66.8 µM (inactive)"
- compound: "COc1cc(O)c(C(=O)/C=C/c2ccccc2)c(OC)c1 [FLAVOKAWAIN B]"
  GI50: "3.85 µM (inactive)"
- compound: "NNC1=N/C(=C\\c2ccccc2O)C(=O)N1"
  GI50: "24 µM (inactive)"
- compound: "O=C1C([P+](c2ccccc2)(c2ccccc2)c2ccccc2)=C([O-])C(=Cc2ccc(Cl)c(Cl)c2)C([O-])=C1[P+](c1ccccc1)(c1ccccc1)c1ccccc1"
  GI50: "1.22 µM (inactive)"

---

Test system: NCI-H23
measurement.protocol: NCI tumour cell line growth inhibition, 48 h
Activity calls are given as the source filed them. Cut-off read from the data, not from the text of the source: active = GI50 up to about 1.1 µM and inactive = higher.
Classes used: active, inactive

- molecule: "CC(C)[C@@H]1CC[C@@H](C)C[C@H]1OC(=O)/C=C1/C2C=CC(O2)C1C(=O)O[C@@H]1C[C@H](C)CC[C@H]1C(C)C (stereo partly drawn)"
  category.label: "inactive"
- molecule: "CCc1nc(N)nc(N)c1-c1ccc(Cl)c([N+]#N)c1"
  category.label: "inactive"
- molecule: "CC(=O)OCCN(C1=NCCN1)/[N+](C=c1ccc(=C=[N-])cc1)=C/c1ccc(C#N)cc1"
  category.label: "inactive"
- molecule: "CN1CCCCCC(=N\\O)/C(=N/O)CCCCC1"
  category.label: "inactive"
- molecule: "NCCC1([N+](=O)[O-])CCNCC1"
  category.label: "inactive"
- molecule: "NS(=O)(=O)c1ccc(CNc2nc(-c3cccs3)nc3ccc(I)cc23)cc1"
  category.label: "inactive"
- molecule: "CC(=O)O[C@H]1CC[C@@]2(C)C(=CC[C@@H]3[C@@H]2CC[C@]2(C)Nc4c(cnn4S(C)(=O)=O)C[C@@H]32)C1"
  category.label: "inactive"
- molecule: "Cc1c(NC(=O)c2cc([N+](=O)[O-])cc([N+](=O)[O-])c2)c(=O)n(-c2ccccc2)n1C"
  category.label: "inactive"
- molecule: "c1ccc(/N=C2\\C(=N/c3ccccc3)N(C3CCCCC3)/C(=N\\C3CCCCC3)N2c2ccccc2)cc1"
  category.label: "inactive"
- molecule: "O=C(O)c1ccc(C=C2Sc3ccccc3S2)cc1"
  category.label: "inactive"
- molecule: "N#Cc1c(-c2ccccc2)c(/C=N/c2ccc(F)cc2)c(=O)n2c1[nH]c1ccccc12"
  category.label: "inactive"
- molecule: "COc1cc([C@@H]2c3cc4c(cc3[C@@H](c3c(O)cc(O)c5c3O[C@H](c3ccc(O)c(O)c3)[C@H](OC(=O)c3cc(O)c(O)c(O)c3)C5)[C@H]3COC(=O)[C@H]23)OCO4)cc(OC)c1O"
  category.label: "inactive"
- molecule: "CC(NC(=O)C(NC(=O)C(NC(=O)C(F)(F)F)C(C)C)C(C)C)C(=O)Oc1c(Cl)c(Cl)c(Cl)c(Cl)c1Cl (stereo not drawn)"
  category.label: "inactive"
- molecule: "CC[C@@]1(O)C(=O)OCc2c1cc1n(c2=O)Cc2c-1nc1ccccc1c2/C=N\\NC(=O)C(N)Cc1c[nH]c2ccccc12 (stereo partly drawn)"
  category.label: "active"
- molecule: "COc1ccc2c(c1)[n+]([O-])c(/C(C)=N/NC(=O)CC#N)c[n+]2[O-]"
  category.label: "inactive"
- molecule: "COC(=O)/C=C/c1ccc(OP(=O)(O)O)c(OC)c1"
  category.label: "inactive"
- molecule: "CC(=O)c1ccc(/N=N/N2CCCC2)cc1"
  category.label: "inactive"
- molecule: "Nc1nc(N)c2nc(-c3ccco3)cnc2n1"
  category.label: "inactive"

---

System: COLO 205
measurement.protocol: NCI tumour cell line growth inhibition, 48 h
The source made the active and inactive calls. Cut-off read from the data, not from the text of the source: active = GI50 up to about 1.1 µM and inactive = higher.
Classes used: active, inactive

- compound: "CC(=O)c1ccc(/N=N/N2CCCC2)cc1"
  category.label: "inactive"
- compound: "CC(C)=C[C@@H]1O[C@H](O)[C@@H]([C@H]2CC[C@@]3(C)[C@@H]4CC[C@H]5C(C)(C)C(=O)CC[C@@]56C[C@@]46CC[C@]23C)[C@@H]1O"
  category.label: "inactive"
- compound: "CC(=O)O[C@H]1C(=O)[C@@]2(C)C([C@H](OC(=O)c3ccccc3)[C@]3(O)C[C@H](OC(=O)[C@H](O)[C@H](NC(=O)c4ccccc4)c4ccc(Cl)cc4)C(C)=C1C3(C)C)C1(OC(C)=O)CO[C@@H]1C[C@@H]2O (some centres undefined)"
  category.label: "active"
- compound: "COc1cc(-c2oc3c(OC)c(O)c(OC)c(O)c3c(=O)c2OC)cc(O)c1OC"
  category.label: "inactive"

---

Tested on: NCI/ADR-RES
measurement.protocol: NCI tumour cell line growth inhibition, 48 h
Calls of active or inactive are those of the source. No stated cut-off is given here; in the data, active = GI50 up to about 1.1 µM and inactive = higher.
Overview of reported GI50 across a group of molecules:
measurement.kind: GI50

- molecule: "O=[N+]([O-])c1cc(Cl)c(Cl)cc1[N+](=O)[O-]"
  data.value: "4.18 µM (inactive)"
- molecule: "NC(=O)C1=NNc2ccccc2C(=O)N1c1ccccc1"
  data.value: "> 100 µM (inactive)"
- molecule: "CCCCC(/C=C\\COC1CCCCO1)=C/C(=O)OCC (stereo not given)"
  data.value: "> 100 µM (inactive)"
- molecule: "CC(=O)c1ccc2c3c1[C@H]1O[C@H]1c1cccc(c1-3)[C@@H]1O[C@H]21"
  data.value: "1.98 µM (inactive)"
- molecule: "COc1cc(/C=C/c2cc(=O)cc(/C=C/c3ccc(O)c(OC)c3)o2)ccc1O"
  data.value: "98.4 µM (inactive)"

---

Tested on: MDA-MB-435
measurement.protocol: NCI tumour cell line growth inhibition, 48 h
The source made the active and inactive calls. Cut-off read from the data, not from the text of the source: active = GI50 up to about 1.1 µM and inactive = higher.
measurement.kind: GI50

- compound: "CC(NC(=O)C(NC(=O)C(NC(=O)C(F)(F)F)C(C)C)C(C)C)C(=O)Oc1c(Cl)c(Cl)c(Cl)c(Cl)c1Cl (stereo unspecified)"
  data.value: "> 100 µM (inactive)"
- compound: "CN(/N=C/c1ccnc2ccccc12)c1ccc(Cl)cc1[N+](=O)[O-]"
  data.value: "> 100 µM (inactive)"
- compound: "CC1=[N+]([O-])C(C)(C)N(N=O)C1(C)C"
  data.value: "> 10 µM (inactive)"
- compound: "O=c1[nH]cnc2c1sc1nc3ccccc3n12"
  data.value: "> 100 µM (inactive)"
- compound: "COc1ccc(Nc2nc3c([nH]2)c(=O)n(C)c(=O)n3C)cc1"
  data.value: "> 10 µM (inactive)"
- compound: "O=C(O)Cc1ccc(/N=N/c2c(O)c(C(=O)O)cc3ccccc23)cc1"
  data.value: "> 100 µM (inactive)"

---

Overview of reported GI50 across a group of compounds:
Test system: SN12C
measurement.protocol: NCI tumour cell line growth inhibition, 48 h
Active and inactive are the calls of the source. Cut-off read from the data, not from the text of the source: active = GI50 up to about 1.1 µM and inactive = higher.

- compound: "Cc1ccccc1/N=N/c1ccc(N/N=C2/CCCNC2=O)c(C)c1"
  tgt: "SN12C"
  GI50: "> 100 µM (inactive)"
- compound: "CC1(C2CCC3(C)OC3C2)CO1 (stereo unspecified)"
  tgt: "SN12C"
  GI50: "> 100 µM (inactive)"
- compound: "O/N=C1/C2CC3CC1(c1ccccc1)CC(/C3=N/O)/C2=N\\O (stereo unspecified)"
  tgt: "SN12C"
  GI50: "> 100 µM (inactive)"
- compound: "CO/N=C(\\C(=O)Nc1cncs1)c1csc(N)n1"
  tgt: "SN12C"
  GI50: "> 10 µM (inactive)"
- compound: "Cc1ccc(Cc2nnc(S)[nH]2)cc1"
  tgt: "SN12C"
  GI50: "> 100 µM (inactive)"
- compound: "Nc1cc2c3c(cccc3c1)NC2=O"
  tgt: "SN12C"
  GI50: "95.1 µM (inactive)"
- compound: "CCCCc1ccc(Nc2nc(N)c3ncn(COCCO)c3n2)cc1"
  tgt: "SN12C"
  GI50: "33 µM (inactive)"
- compound: "C[C@]12CC[C@H](O)CC1CCC[C@@H]2O (stereo partly specified)"
  tgt: "SN12C"
  GI50: "> 100 µM (inactive)"
- compound: "COC(=O)c1ccccc1NC(=O)C(=O)CC(=O)CC(c1ccccc1)c1c(O)c2ccccc2oc1=O (stereo unspecified)"
  tgt: "SN12C"
  GI50: "> 100 µM (inactive)"
- compound: "CN(C)c1ccc(-c2c(C#N)c(-c3ccccc3)n(NS(=O)(=O)c3ccccc3)c(=O)c2C#N)cc1"
  tgt: "SN12C"
  GI50: "68.9 µM (inactive)"
- compound: "COc1ccc2[nH]c3c(C)c4cnccc4c(C)c3c2c1"
  tgt: "SN12C"
  GI50: "2.24 µM (inactive)"
